Entries annotated with measured yeast fitness
B1: tRNA (parent)
chain: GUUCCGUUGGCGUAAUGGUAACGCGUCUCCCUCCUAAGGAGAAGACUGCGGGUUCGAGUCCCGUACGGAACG

Variants of: B1
Assay: yeast fitness relative to wild type (ratio to wild type); higher = fitter; tRNA-Arg(CCU), competitive growth, 37 C, YPD
Variants at the floor of the assay were thinned out.

Worked examples, 5 variants total:
> print(dat)
         variant.identifier  measured.attribute  result
1             U3A A14U C46G       yeast fitness   ≤ 0.5
2            C29G U32C A42C       yeast fitness    0.54
3  C22U U28A C33G G58A C66U       yeast fitness   ≤ 0.5
4  C11U A15C C27A G39C G67U       yeast fitness   ≤ 0.5
5             C5G C29U G44C       yeast fitness   ≤ 0.5

Give its yeast fitness value. Item: U8A A70U
0.813

Quick one: U26G C46A A65G
0.682

Quick one: A21U A36C G38C G58C A69C
≤ 0.5

Quick one: C34U A36U C66U A69U
0.612

Quick one: G41A C61A
0.742

Quick one: A15U G41C G56C
≤ 0.5

Quick one: U19C C24A G58A
≤ 0.5

Quick one: C5G U19G C22U U32C A65C C66U
≤ 0.5

Quick one: U7A G50C A57C C61U
≤ 0.5

Quick one: U35A C60A A65U A70G
≤ 0.5

Quick one: A36G C60G A70G
≤ 0.5

Cited source: the RNAGym collection of RNA variant scans (doi:10.1126/science.aae0568)
